Would you mind telling me the reported pKi of each entry?
pKi: −log10 of the molar value.

Summary line: Fc1ccccc1OC(c1ccccn1)[C@@H]1CNCCO1 (single isomer, unassigned) , human seritonin transporter (Homo sapiens, UniProt P31645), reported pKi = ≤ 5.00

Summary line: "COc1cccc(F)c1O[C@@H](c1ccccn1)[C@@H]1CNCCO1" , human seritonin transporter (Homo sapiens, UniProt P31645), reported pKi = ≤ 5.00

Summary line: "CCOc1ccccc1O[C@H](c1ccccn1)[C@@H]1CNCCO1" , human seritonin transporter (Homo sapiens, UniProt P31645), reported pKi = ≤ 5.00

###

// each record: one item and its Ki for human seritonin transporter (Homo sapiens, UniProt P31645)

The compound listed as Clc1ccccc1-c1ccccc1OCC1CNCCO1 (stereo not drawn) has a reported Ki of ≥ 10 µM

The compound listed as "c1ccc(Oc2ncccc2OC[C@H]2CNCCO2)cc1" has a reported Ki of ≥ 10 µM

The compound listed as "c1ccc([C@H](Oc2ccccc2-c2ccncc2)[C@@H]2CNCCO2)cc1" has a reported Ki of ≥ 10 µM
